Tested on: CCRIS mutagenicity, Ames/micronucleus/aberration tests
Assay: CCRIS mutagenicity studies
Settings: Test System: AMES SALMONELLA TYPHIMURIUM; Strain/Indicator: TA97; Metabolic Activation: HAMSTER, LIVER, S-9, AROCLOR 1254 (10%); Method: PREINCUBATION
The source made the active and inactive calls. The rule behind the calls is not given here.
measure: mutagenic call

Some molecules with known mutagenic call results, for comparison:
# molecule, system_under_test, observed_value
rows = [
    ("CC/C=C/C#N", "CCRIS mutagenicity, Ames/micronucleus/aberration tests", "inactive; negative"),
    ("CCCCC(CC)COCCC#N (stereo not drawn)", "CCRIS mutagenicity, Ames/micronucleus/aberration tests", "inactive; negative"),
    ("CCCCCCCCOc1ccc(C(=O)O)cc1", "CCRIS mutagenicity, Ames/micronucleus/aberration tests", "inactive; negative"),
    ("CC(=O)Nc1cccc(N)c1", "CCRIS mutagenicity, Ames/micronucleus/aberration tests", "active; positive"),
]

Which value of mutagenic call has been reported for CC(=O)NNc1ccccc1 in the records?
inactive; negative

Which value of mutagenic call has been reported for CCSCCC(N)C(=O)O (stereo not drawn) in the records?
inactive; negative

Which value of mutagenic call has been reported for CCCCC(CC)CN (stereo not drawn) in the records?
inactive; negative

----------
Test system: CCRIS mutagenicity, Ames/micronucleus/aberration tests
Test: CCRIS mutagenicity studies
Details: Test System: AMES SALMONELLA TYPHIMURIUM; Strain/Indicator: TA1535; Metabolic Activation: RAT, LIVER, S-9, AROCLOR 1254 (10%); Method: PREINCUBATION
Active and inactive are the calls of the source. How the calls were made is not given here.
Give one outcome, nothing more. List: Yes for active, No for inactive

Tell me the recorded outcome of this test for Cl/C=C/C[N+]12CN3CN(CN(C3)C1)C2 .
No

Tell me the recorded outcome of this test for CC(=O)Oc1ccccc1C(=O)O .
No

Tell me the recorded outcome of this test for O=C1Nc2ccc(Cl)cc2C(c2ccccc2)=NC1O (stereo unspecified) .
No

Tell me the recorded outcome of this test for CCCCCCCCOc1ccc(C(=O)O)cc1 .
No

Tell me the recorded outcome of this test for CNCCO .
No

Tell me the recorded outcome of this test for OCCBr .
Yes

Tell me the recorded outcome of this test for Cc1ccccc1N .
No

Tell me the recorded outcome of this test for CC(C)CCCCCCCOC(=O)c1ccccc1C(=O)OCCCCCCCC(C)C .
No

Tell me the recorded outcome of this test for CCNCC .
No

Tell me the recorded outcome of this test for CCSCCC(N)C(=O)O (stereo unspecified) .
No

Tell me the recorded outcome of this test for C=C(C)C(=O)OCC(C)C .
No

Tell me the recorded outcome of this test for O=[N+]([O-])c1ccc(O)c([N+](=O)[O-])c1 .
No

Tell me the recorded outcome of this test for CC(C)CON=O .
No

Tell me the recorded outcome of this test for CCCCCCCCCCCC(=O)N(CCO)CCO .
No

Tell me the recorded outcome of this test for CC=C(C)C#N .
No

Tell me the recorded outcome of this test for Oc1c(Cl)ccc(Cl)c1Cl .
No

Tell me the recorded outcome of this test for C=CC(=C)C .
No

Tell me the recorded outcome of this test for CC(C)=CCC/C(C)=C/C=O .
No

Tell me the recorded outcome of this test for C=CC(=O)OCC1CO1 (stereo unspecified) .
Yes

Tell me the recorded outcome of this test for Cc1ccc(C#N)cc1 .
No

Tell me the recorded outcome of this test for COc1ccc(C(=O)c2ccccc2)c(O)c1 .
No

Tell me the recorded outcome of this test for COC(=O)Nc1nc2ccccc2[nH]1 .
No

Tell me the recorded outcome of this test for c1ccc2n[nH]nc2c1 .
Yes

Tell me the recorded outcome of this test for C=C(C)C(=O)OC(C)C .
No

Tell me the recorded outcome of this test for O=C1c2ccccc2C(=O)C1c1ccc2ccccc2n1 .
No

Tell me the recorded outcome of this test for O=CC(Cl)(Cl)Cl .
No

Tell me the recorded outcome of this test for O=C(O)c1ccccc1[N+](=O)[O-] .
No

Tell me the recorded outcome of this test for Cc1ccccc1N=Nc1ccc(N(C)C)cc1 .
No

Tell me the recorded outcome of this test for [N-]=[N+]=[N-] .
Yes

Tell me the recorded outcome of this test for Nc1ccc(Oc2ccc(N)cc2)cc1 .
No

Tell me the recorded outcome of this test for CC(C)(C)OOC(=O)c1ccccc1 .
No

Tell me the recorded outcome of this test for CC(=O)Nc1ccc(O)cc1 .
No

Tell me the recorded outcome of this test for Oc1ccc(Cl)cc1Cc1ccccc1 .
No

Tell me the recorded outcome of this test for CCCCCCCCCCCCOS(=O)(=O)O .
No

Tell me the recorded outcome of this test for Nc1ccccc1-c1ccccc1 .
No

Tell me the recorded outcome of this test for CC/C=C/C#N .
No

Tell me the recorded outcome of this test for Cc1ccc(OP(=O)(Oc2ccc(C)cc2C)Oc2ccc(C)cc2C)c(C)c1 .
No

Tell me the recorded outcome of this test for CC(O)c1ccccc1 (stereo unspecified) .
No

Tell me the recorded outcome of this test for Cc1ccc(CO)cc1 .
No

Tell me the recorded outcome of this test for CN(C)CCN(Cc1ccsc1)c1ccccn1 .
No

Tell me the recorded outcome of this test for CC(CN1c2ccccc2Sc2ccccc21)N(C)C (stereo unspecified) .
No

Tell me the recorded outcome of this test for COc1ccc(N)cc1N .
No

Tell me the recorded outcome of this test for OCCO .
No

Tell me the recorded outcome of this test for CC(=O)Nc1cccc(N)c1 .
No

Tell me the recorded outcome of this test for CC(O)CBr (stereo unspecified) .
Yes

Tell me the recorded outcome of this test for CC(=O)O .
No

Tell me the recorded outcome of this test for c1ccc(P(c2ccccc2)c2ccccc2)cc1 .
No

Tell me the recorded outcome of this test for CC(C)(O)C#N .
No

Tell me the recorded outcome of this test for COc1ccc(C(=O)c2ccccc2O)c(O)c1 .
No

Tell me the recorded outcome of this test for C(CCOCC1CO1)COCC1CO1 (stereo unspecified) .
Yes

Tell me the recorded outcome of this test for Cc1ccc(O)c(N)c1 .
No

Tell me the recorded outcome of this test for NC=O .
No

Tell me the recorded outcome of this test for CCCCCCCCC/C=C/CC1CC(=O)OC1=O (stereo unspecified) .
No

Tell me the recorded outcome of this test for CCCN(CCC)S(=O)(=O)c1ccc(C(=O)O)cc1 .
No

Tell me the recorded outcome of this test for c1ccsc1 .
No

Tell me the recorded outcome of this test for ClC1=C(Cl)[C@]2(Cl)[C@@H]3[C@H]4C[C@H]([C@@H]5O[C@H]45)[C@@H]3[C@@]1(Cl)C2(Cl)Cl .
No
